The following compounds were reported with pKi values on Adenosine receptor A2a (Homo sapiens, UniProt P29274) in different studies.
Sequence (P29274 whole entry): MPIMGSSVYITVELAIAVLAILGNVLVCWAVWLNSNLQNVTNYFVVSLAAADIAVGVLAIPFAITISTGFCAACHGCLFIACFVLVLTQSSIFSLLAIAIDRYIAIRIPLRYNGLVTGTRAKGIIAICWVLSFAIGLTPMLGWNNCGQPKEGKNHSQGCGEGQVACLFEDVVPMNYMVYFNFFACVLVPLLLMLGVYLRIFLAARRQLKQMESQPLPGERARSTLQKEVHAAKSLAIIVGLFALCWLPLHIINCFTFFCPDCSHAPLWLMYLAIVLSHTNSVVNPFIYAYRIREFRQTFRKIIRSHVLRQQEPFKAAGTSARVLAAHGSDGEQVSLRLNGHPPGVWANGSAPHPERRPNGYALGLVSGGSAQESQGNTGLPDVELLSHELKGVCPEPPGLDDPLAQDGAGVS
Scale: pKi equals -log10([C]), with [C] in mol/L.

Could you share what pKi was measured for COc1cc(OC)cc(C(CNc2ncnc3c2ncn3[C@@H]2O[C@H](CO)[C@@H](O)[C@H]2O)c2ccccc2C)c1 (some centres undefined) , tested on Adenosine receptor A2a (Homo sapiens, UniProt P29274)?
7.42

Could you share what pKi was measured for COC(C)COc1ccc(N2CCN(CCn3ncc4c3nc(N)n3nc(-c5ccco5)nc43)CC2)cc1 (racemic) , tested on Adenosine receptor A2a (Homo sapiens, UniProt P29274)?
8.80

Could you share what pKi was measured for COCCOc1ccc(N2CCN(CCN(C)c3cc4nc(-c5ccccc5)nn4c(N)n3)CC2)cc1 , tested on Adenosine receptor A2a (Homo sapiens, UniProt P29274)?
7.60

Could you share what pKi was measured for CCN(C(C)=O)c1ccc(OC)c2nc(NC(=O)C3CCN(S(=O)(=O)c4cccc(C(F)(F)F)c4)CC3)sc12 , tested on Adenosine receptor A2a (Homo sapiens, UniProt P29274)?
5.98

Could you share what pKi was measured for Cc1ccc(-c2nc(N)nc3c2cnn3Cc2cccc(OCCCCCC(=O)NO)n2)o1 , tested on Adenosine receptor A2a (Homo sapiens, UniProt P29274)?
7.14

Could you share what pKi was measured for O=C(Nc1nc(-c2ccccc2)nc2nn(Cc3ccccc3)cc12)c1ccccc1 , tested on Adenosine receptor A2a (Homo sapiens, UniProt P29274)?
6.74
